# assayExplanation: Cytotoxicity, ^3 H-LEU assay (HeLa cell translation)
# Assay type: cell-based
# reportedConditions: human, hela cells, inhibition of cellular translational activity, overnight/24 hrs incubation, read-out: CYTOTOXICITY ^3 H-LEU ASSAY IC50
CC50 at 24 h strictly less than 30 µg/mL = true (1). Otherwise false (0).

Cn1cccc1C(=O)Oc1c(OC(=O)c2cccn2C)c2ccccc2n(C)c1=O :: false (0)
Cn1c(=O)c(O)c(O)c2ccccc21 :: true (1)
O=c1c(O)c(O)c2ccccc2n1Cc1ccccc1 :: false (0)
COc1c(OC)c2ccccc2n(C)c1=O :: false (0)
CCC(=O)Oc1c(OC(=O)CC)c2ccccc2n(C)c1=O :: false (0)

In: is_below(CC50 at 24 h, 30 µg/mL) for Cn1c(=O)c(OC(=O)c2ccccc2)c(OC(=O)c2ccccc2)c2ccccc21 ?
Out: false (0)

In: is_below(CC50 at 24 h, 30 µg/mL) for Cn1c(=O)c(OC(=O)c2cccs2)c(OC(=O)c2cccs2)c2ccccc21 ?
Out: false (0)

In: Lab note: CC50 at 24 h threshold 30 µg/mL. Does this molecule come in strictly under it? O=c1c(O)c(O)c2ccccc2n1-c1ccccc1
Out: true (1)

In: Check if CC50 at 24 h falls below 30 µg/mL for CCCCCCCn1c(=O)c(O)c(O)c2ccccc21 .
Out: false (0)

In: Record Cn1c(=O)c(OC(=O)c2ccc[nH]2)c(OC(=O)c2ccc[nH]2)c2ccccc21 : is its CC50 at 24 h strictly below 30 µg/mL?
Out: true (1)

In: Is the reported CC50 at 24 h for Cn1c(=O)c(OC(=O)c2ccc(Br)o2)c(OC(=O)c2ccc(Br)o2)c2ccccc21 strictly below 30 µg/mL?
Out: false (0)

====

# assayExplanation: CMV toxicity assay, ^3 H-LEU assay in HFF cells
# Type: cell-based
# reportedConditions: human, read-out: CYTOTOXICITY ^3 H-LEU ASSAY IC50 (CMV toxicity assay)
Each entry below lists one item and its recorded CC50 value.
Field: value (include unit after the number)

CCCCCCCn1c(=O)c(O)c(O)c2ccccc21 :: 25 µg/mL

Pending compound:
In: Data request, read-out CC50, for Cn1c(=O)c(O)c(O)c2ccccc21
Out: 36 µg/mL
